# TARGET_OF_ASSAY: E. coli CsgA (Escherichia coli)
# Construct: 6xHis (C); made in house; host or cells: E. coli NEB 3016 slyD::kan
# Sequence (P28307 23-151): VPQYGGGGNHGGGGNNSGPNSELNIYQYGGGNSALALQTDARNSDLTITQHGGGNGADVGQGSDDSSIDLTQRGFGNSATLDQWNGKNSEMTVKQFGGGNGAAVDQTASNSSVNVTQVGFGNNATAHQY
# ASSAY_NOTES: Thioflavin T cell-free assay of CsgA aggregation
# Type: biochemical
# CONDITION_LABEL: read-out: Inhibition of Aggregation, CsgA (compound activity range)
ATTRIBUTE_MEASURED: inhibition at 20 µM

1) COc1cc2[nH]cc(C(=O)Nc3ccccc3)c(=O)c2c(OC)c1OC; < -10%
2) COc1cc(NC(=O)c2c(N(C)C(=O)c3cc(OC)c(OC)c(OC)c3)sc3c2CCCC3)cc(OC)c1OC; < -10%
3) COc1cc(OC)c2c(=O)c(C(=O)Nc3ccc(O)cc3)c[nH]c2c1; < -10%
4) COc1cc(C(=O)Nc2sc3c(c2C(=O)O)CCCC3)cc(OC)c1OC; 10 to 30%
5) COc1cc2[nH]cc(C(=O)Nc3ccccc3O)c(=O)c2c(OC)c1OC; -10 to 10%
6) COc1cc(-c2[nH]c3cc(OC)c(OC)c(OC)c3c(=O)c2C(=O)O)cc(OC)c1OC; < -10%
7) O=C(Nc1ccccc1)c1c[nH]c2ccccc2c1=O; < -10%
8) COc1cc(C(=O)Nc2sc3c(c2C(=O)N(C)c2cc(OC)c(OC)c(OC)c2)CCCC3)cc(OC)c1OC; -10 to 10%

* * *

# TARGET_OF_ASSAY: human α-synuclein (Homo sapiens, UniProt P37840)
# Construct: the full-length gene for untagged human α-synuclein was inserted; made in house; host or cells: E. coli BL21 (DE3)
# ASSAY_NOTES: Thioflavin T cell-free assay of α-synuclein aggregation
# Format: biochemical
# CONDITION_LABEL: α-synuclein 50 μM, compounds at 20-50 μM, ThT fluorescence, data from 36 hours; negative = potentiation
ATTRIBUTE_MEASURED: Inhibition of Aggregation, αSyn (%)

1. COc1cc(NC(=O)c2c[nH]c3cc(OC)c(OC)c(OC)c3c2=O)cc(OC)c1OC; 29
2. O=C(Nc1sc2c(c1C(=O)Nc1ccccc1)CCCC2)c1cc(O)c(O)c(O)c1; 18
3. COc1cc2[nH]cc(C(=O)Nc3cccc(O)c3)c(=O)c2c(OC)c1OC; 20
4. CN(C(=O)c1c[nH]c2cc(O)cc(O)c2c1=O)c1cc(O)c(O)c(O)c1; 98
5. O=C(Nc1cccc(O)c1)c1c[nH]c2cc(O)c(O)c(O)c2c1=O; 48
6. O=C(Nc1ccc(O)cc1)c1c[nH]c2cc(O)c(O)c(O)c2c1=O; 14
7. O=C(Nc1sc2c(c1C(=O)Nc1cc(O)cc(O)c1)CCCC2)c1cc(O)c(O)c(O)c1; 36
8. COc1cc(OC)c2c(=O)c(C(=O)Nc3ccccc3O)c[nH]c2c1; 17
9. COc1cc(OC)c2c(=O)c(C(=O)Nc3cccc(O)c3)c[nH]c2c1; 24
10. COc1cc(OC)c2c(=O)c(C(=O)Nc3ccccc3)c[nH]c2c1; 17

* * *

# TARGET_OF_ASSAY: α-synuclein seeded by E. coli CsgA (Homo sapiens, UniProt P37840)
# Construct: the full-length gene for untagged human α-synuclein was inserted; made in house; host or cells: α-synuclein: E. coli BL21 (DE3); CsgA: E. coli NEB 3016 slyD::kan
# ASSAY_NOTES: Thioflavin T cell-free assay of CsgA-seeded α-synuclein aggregation
# Format: biochemical
# CONDITION_LABEL: read-out: Inhibition of Aggregation, CsgA-seeded αSyn
Property: inhibition at 50 µM; scope: individual molecules
ATTRIBUTE_MEASURED: inhibition at 50 µM

1) O=C(Nc1cccc(O)c1)c1c[nH]c2cc(O)cc(O)c2c1=O; > 90%
2) COc1cc(OC)c2c(=O)c(C(=O)Nc3cccc(O)c3)c[nH]c2c1; < -50%
3) O=C(Nc1cccc(O)c1)c1c[nH]c2cc(O)c(O)c(O)c2c1=O; > 90%
